Experiment: Tmax in Sprague-Dawley rat at 1 mg/kg,SC measured upto 48 hrs by LC-MS/MS analysis
Assay type: ADME, organism-based
Settings: in vivo
Peptide text beside a SMILES is read from it.
quantity kind: Tmax (h)

compound	unit abbrev	measured number
C[C@@H](O)[C@@H]1NC(=O)[C@H](Cc2c[nH]c3ccccc23)NC(=O)[C@@H]2CCCN2C(=O)[C@H](CCCNC(=N)N)NC(=O)[C@H](Cc2c[nH]cn2)NC(=O)[C@H](CCCCN)NC(=O)[C@H]([C@@H](C)O)NC1=O (cyclo(HRPWTTK))	h	1

###

Molecular target: CCN2-EGFR (Homo sapiens) (UniProt P00533+P29279)
Sequence (P00533 whole entry, looked up, the tested form may be a part): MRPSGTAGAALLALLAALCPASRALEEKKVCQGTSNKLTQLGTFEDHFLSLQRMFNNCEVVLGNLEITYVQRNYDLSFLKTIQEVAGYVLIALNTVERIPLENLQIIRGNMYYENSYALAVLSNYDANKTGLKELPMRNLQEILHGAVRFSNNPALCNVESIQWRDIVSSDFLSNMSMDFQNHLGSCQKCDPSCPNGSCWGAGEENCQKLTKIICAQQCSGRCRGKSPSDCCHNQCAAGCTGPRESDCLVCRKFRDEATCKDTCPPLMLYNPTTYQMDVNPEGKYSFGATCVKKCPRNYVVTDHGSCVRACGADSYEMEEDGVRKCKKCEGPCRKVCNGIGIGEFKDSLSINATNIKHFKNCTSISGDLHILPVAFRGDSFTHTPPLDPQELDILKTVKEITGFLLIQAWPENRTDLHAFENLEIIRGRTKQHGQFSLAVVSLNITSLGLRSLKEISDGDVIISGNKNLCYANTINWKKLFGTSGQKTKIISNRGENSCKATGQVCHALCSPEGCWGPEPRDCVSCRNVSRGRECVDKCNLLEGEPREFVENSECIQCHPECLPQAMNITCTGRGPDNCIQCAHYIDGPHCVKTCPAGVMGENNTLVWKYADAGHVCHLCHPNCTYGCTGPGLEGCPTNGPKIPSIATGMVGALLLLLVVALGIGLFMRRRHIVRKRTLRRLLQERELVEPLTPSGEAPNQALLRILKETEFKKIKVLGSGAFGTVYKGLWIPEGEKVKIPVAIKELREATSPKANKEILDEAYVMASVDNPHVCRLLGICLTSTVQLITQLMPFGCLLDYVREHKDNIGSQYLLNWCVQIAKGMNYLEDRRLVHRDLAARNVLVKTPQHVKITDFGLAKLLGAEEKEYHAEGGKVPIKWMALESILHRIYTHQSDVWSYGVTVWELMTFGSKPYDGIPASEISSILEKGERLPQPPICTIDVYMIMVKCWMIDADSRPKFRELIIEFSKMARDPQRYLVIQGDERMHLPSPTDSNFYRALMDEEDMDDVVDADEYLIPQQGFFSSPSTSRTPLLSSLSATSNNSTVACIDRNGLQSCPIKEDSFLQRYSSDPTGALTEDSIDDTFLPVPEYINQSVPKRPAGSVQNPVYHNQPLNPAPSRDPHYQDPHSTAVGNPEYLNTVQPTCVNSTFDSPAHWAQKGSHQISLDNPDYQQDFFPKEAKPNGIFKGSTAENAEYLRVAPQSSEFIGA
Sequence (P29279 whole entry, looked up, the tested form may be a part): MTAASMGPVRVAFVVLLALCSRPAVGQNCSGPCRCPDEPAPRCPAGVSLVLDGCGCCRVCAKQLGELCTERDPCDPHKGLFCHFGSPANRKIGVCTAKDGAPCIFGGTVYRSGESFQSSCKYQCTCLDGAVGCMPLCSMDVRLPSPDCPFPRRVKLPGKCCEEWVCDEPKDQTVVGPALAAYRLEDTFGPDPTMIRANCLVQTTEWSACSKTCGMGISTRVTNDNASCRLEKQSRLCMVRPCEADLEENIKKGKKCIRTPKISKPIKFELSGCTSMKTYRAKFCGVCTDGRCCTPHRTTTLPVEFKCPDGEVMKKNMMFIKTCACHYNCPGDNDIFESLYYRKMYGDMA
Experiment: Inhibition of His-tagged full length human CCN2 FL domain/human Fc-tagged EGFR protein-protein interaction using TMB as chromogenic substrate at 100 uM incubated for 140 mins by microplate reader assay relative to control
Peptide text beside a SMILES is read from it.
quantity kind: inhibition

compound	target system	quantity kind	result
CC(C)C[C@H](NC(=O)[C@@H](N)CC(C)C)C(=O)N[C@@H](C)C(=O)N[C@@H](CC(=O)O)C(=O)N[C@H](C(=O)N[C@H](C(=O)N[C@@H](Cc1c[nH]cn1)C(=O)N[C@@H](C)C(=O)N[C@@H](CCCNC(=N)N)C(=O)N1CCC[C@H]1C(=O)N[C@@H](Cc1c[nH]c2ccccc12)C(=O)N[C@H](C(N)=O)[C@@H](C)O)[C@@H](C)O)[C@@H](C)O (H-LLADTTHARPWT-NH2)	CCN2-EGFR (Homo sapiens) (UniProt P00533+P29279)	inhibition	48.6%
C[C@@H](O)[C@H](N)C(=O)N[C@@H](Cc1c[nH]cn1)C(=O)N[C@@H](CCCCN)C(=O)N[C@@H](CCCNC(=N)N)C(=O)N1CCC[C@H]1C(=O)N[C@@H](Cc1c[nH]c2ccccc12)C(=O)N[C@H](C(N)=O)[C@@H](C)O (H-THKRPWT-NH2)	CCN2-EGFR (Homo sapiens) (UniProt P00533+P29279)	inhibition	59.7%
CC(C)C[C@H](NC(=O)[C@@H](N)CC(C)C)C(=O)N[C@@H](C)C(=O)N[C@@H](C)C(=O)N[C@H](C(=O)N[C@H](C(=O)N[C@@H](Cc1c[nH]cn1)C(=O)N[C@@H](Cc1c[nH]cn1)C(=O)N[C@@H](CCCNC(=N)N)C(=O)N1CCC[C@H]1C(=O)N[C@@H](Cc1c[nH]c2ccccc12)C(=O)N[C@H](C(N)=O)[C@@H](C)O)[C@@H](C)O)[C@@H](C)O (H-LLAATTHHRPWT-NH2)	CCN2-EGFR (Homo sapiens) (UniProt P00533+P29279)	inhibition	61.4%
C[C@@H](O)[C@@H]1NC(=O)[C@H](Cc2c[nH]c3ccccc23)NC(=O)[C@@H]2CCCN2C(=O)[C@H](CCCNC(=N)N)NC(=O)[C@H](CCCCN)NC(=O)[C@H](Cc2c[nH]cn2)NC(=O)[C@H]([C@@H](C)O)NC1=O (cyclo(HKRPWTT))	CCN2-EGFR (Homo sapiens) (UniProt P00533+P29279)	inhibition	17.4%
CC(C)C[C@H](NC(=O)[C@@H](N)CC(C)C)C(=O)N[C@@H](C)C(=O)N[C@@H](CC(=O)O)C(=O)N[C@@H](C)C(=O)N[C@H](C(=O)N[C@@H](Cc1c[nH]cn1)C(=O)N[C@@H](Cc1c[nH]cn1)C(=O)N[C@@H](CCCNC(=N)N)C(=O)N1CCC[C@H]1C(=O)N[C@@H](Cc1c[nH]c2ccccc12)C(=O)N[C@H](C(N)=O)[C@@H](C)O)[C@@H](C)O (H-LLADATHHRPWT-NH2)	CCN2-EGFR (Homo sapiens) (UniProt P00533+P29279)	inhibition	59%
CC(C)C[C@H](NC(=O)[C@@H](N)CC(C)C)C(=O)N[C@@H](C)C(=O)N[C@@H](CC(=O)O)C(=O)N[C@H](C(=O)N[C@H](C(=O)N[C@@H](Cc1c[nH]cn1)C(=O)N[C@@H](Cc1c[nH]cn1)C(=O)N[C@@H](CCCNC(=N)N)C(=O)N1CCC[C@H]1C(=O)N[C@@H](Cc1c[nH]c2ccccc12)C(=O)N[C@@H](C)C(N)=O)[C@@H](C)O)[C@@H](C)O (H-LLADTTHHRPWA-NH2)	CCN2-EGFR (Homo sapiens) (UniProt P00533+P29279)	inhibition	13.5%
